test: Cytotoxicity against human MDA435/LCC6MDR cells assessed as growth inhibition after 3 days by MTS assay; format: functional, cell-based; details: 72 h
value_kind: IC50

COc1ccc(C2=C(c3cc(OC)c(OC)c(OC)c3)C(=O)N(CC(=O)c3ccc(OCc4ccccc4)c(OC)c3)C2=O)cc1OC; > 100 µM

query: May I ask what IC50 has been recorded for COc1ccc(C2=C(c3ccc(OC)c(OC)c3)C(=O)N(CC(=O)c3ccc(OCc4ccccc4)c(OC)c3)C2=O)cc1OC ?
result: > 100 µM

---

biological target: ATP-dependent translocase ABCB1 (Homo sapiens, UniProt P08183); experiment: Modulation of p-gp (unknown origin) transfected in human MDA435/LCC6MDR cells assessed as potentiation of paclitaxel-induced cytotoxicity at 1 uM after 5 days by MTS assay relative to untreated control; format: cell-based; conditions: 120 h
Sequence (P08183 whole entry): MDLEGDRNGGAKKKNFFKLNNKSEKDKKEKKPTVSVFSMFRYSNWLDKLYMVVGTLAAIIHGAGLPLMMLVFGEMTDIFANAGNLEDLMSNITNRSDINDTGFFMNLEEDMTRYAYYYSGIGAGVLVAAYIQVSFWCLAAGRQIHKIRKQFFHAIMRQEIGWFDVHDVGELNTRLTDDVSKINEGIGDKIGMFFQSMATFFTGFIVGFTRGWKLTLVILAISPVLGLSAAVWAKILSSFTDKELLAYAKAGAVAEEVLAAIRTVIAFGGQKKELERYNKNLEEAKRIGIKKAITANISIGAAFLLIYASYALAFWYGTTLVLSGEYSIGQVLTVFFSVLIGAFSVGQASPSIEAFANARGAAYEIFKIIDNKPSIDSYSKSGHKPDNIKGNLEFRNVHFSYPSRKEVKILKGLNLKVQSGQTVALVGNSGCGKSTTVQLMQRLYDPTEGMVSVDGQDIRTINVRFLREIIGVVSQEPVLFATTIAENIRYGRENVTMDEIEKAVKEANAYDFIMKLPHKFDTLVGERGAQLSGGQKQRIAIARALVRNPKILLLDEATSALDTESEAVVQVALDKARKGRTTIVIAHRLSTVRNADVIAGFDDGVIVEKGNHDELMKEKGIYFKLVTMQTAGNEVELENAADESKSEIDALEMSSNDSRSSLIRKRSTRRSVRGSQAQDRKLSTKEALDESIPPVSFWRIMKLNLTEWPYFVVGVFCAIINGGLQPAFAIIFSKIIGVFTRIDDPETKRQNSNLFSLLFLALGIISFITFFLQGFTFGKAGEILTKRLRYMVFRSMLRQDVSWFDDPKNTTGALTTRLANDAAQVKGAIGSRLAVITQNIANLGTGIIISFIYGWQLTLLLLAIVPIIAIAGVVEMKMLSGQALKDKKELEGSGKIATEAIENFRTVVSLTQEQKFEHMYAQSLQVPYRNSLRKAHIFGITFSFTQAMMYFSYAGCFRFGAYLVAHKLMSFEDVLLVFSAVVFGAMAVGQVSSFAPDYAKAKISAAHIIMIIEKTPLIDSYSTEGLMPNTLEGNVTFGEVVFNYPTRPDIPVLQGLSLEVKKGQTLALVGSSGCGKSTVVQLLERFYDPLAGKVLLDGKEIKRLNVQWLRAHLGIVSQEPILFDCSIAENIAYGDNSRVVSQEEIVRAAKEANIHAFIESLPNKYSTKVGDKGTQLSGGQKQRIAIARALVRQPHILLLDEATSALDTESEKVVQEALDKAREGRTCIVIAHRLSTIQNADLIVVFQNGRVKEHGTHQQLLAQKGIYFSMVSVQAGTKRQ
This listing pairs compounds with measured fold change (FC).
The answer should be a number; do not append a unit.

# example entries with known answers
COc1ccc(C2=C(c3cc(OC)c(OC)c(OC)c3)C(=O)N(CC(=O)c3ccc(OCc4ccccc4)cc3)C2=O)cc1OC; 16.8
COc1ccc(C2=C(c3cc(OC)c(OC)c(OC)c3)C(=O)N(CC(=O)c3cc(OC)c(OC)c(OC)c3)C2=O)cc1OC; 3.8
COc1ccc(C2=C(c3ccc(OC)c(OC)c3)C(=O)N(CC(=O)OC(C)(C)C)C2=O)cc1OC; 3.3

query: Hi! What's the reported fold change (FC) for COc1ccc(C2=C(c3ccc(OC)c(OC)c3)C(=O)N(CCn3cnc4c(N)ncnc43)C2=O)cc1OC on ATP-dependent translocase ABCB1 (Homo sapiens, UniProt P08183)?
result: 1.7

query: Hi! What's the reported fold change (FC) for COc1ccc(C(=O)CN2C(=O)C(c3cc(OC)c(OC)c(OC)c3)=C(c3cc(OC)c(OC)c(OC)c3)C2=O)cc1OC on ATP-dependent translocase ABCB1 (Homo sapiens, UniProt P08183)?
result: 3.3

query: Hi! What's the reported fold change (FC) for COc1ccc(C(=O)CN2C(=O)C(c3ccc(OC)c(OC)c3)=C(c3cc(OC)c(OC)c(OC)c3)C2=O)cc1 on ATP-dependent translocase ABCB1 (Homo sapiens, UniProt P08183)?
result: 7.2

---

This listing pairs compounds with measured selectivity ratio.
test system: P-gp (unknown origin); test: Therapeutic index, ratio of IC50 for mouse L929 cells to EC50 for modulation of p-gp (unknown origin) transfected in human MDA435/LCC6MDR cells assessed as reversal of paclitaxel resistance; assay type: cell-based; conditions: read-out: Ratio IC50/EC50

COc1ccc(C2=C(c3ccc(OC)c(OC)c3)C(=O)N(CC(=O)c3ccc(OCc4ccccc4)c(OC)c3)C2=O)cc1OC; > 1070

Let us examine a further case.
query: May I ask what selectivity ratio has been recorded for COc1ccc(C2=C(c3cc(OC)c(OC)c(OC)c3)C(=O)N(CC(=O)c3ccc(OCc4ccccc4)c(OC)c3)C2=O)cc1OC ?
result: > 909

---

target: ATP-dependent translocase ABCB1 (Homo sapiens, UniProt P08183); assay: Modulation of p-gp (unknown origin) transfected in human MDA435/LCC6MDR cells assessed as potentiation of paclitaxel-induced cytotoxicity at 1 uM after 5 days by MTS assay relative to untreated control; assay type: cell-based; settings: 120 h
value_kind: fold change (FC)
The answer should be a number; do not append a unit.

# example entries with known answers
CCOc1cc(CN2C(=O)C(c3ccc(OC)c(OC)c3)=C(c3ccc(OC)c(OC)c3)C2=O)cc(OCC)c1OCC; 1.9
COc1ccc(CN2C(=O)C(c3ccc(OC)c(OC)c3)=C(c3cc(OC)c(OC)c(OC)c3)C2=O)cc1OC; 13.2
COc1ccc(C(=O)CN2C(=O)C(c3ccc(OC)c(OC)c3)=C(c3cc(OC)c(OC)c(OC)c3)C2=O)cc1OC; 5.1
C=CCOc1cc(CN2C(=O)C(c3ccc(OC)c(OC)c3)=C(c3ccc(OC)c(OC)c3)C2=O)cc(OCC=C)c1OCC=C; 3.8

query: May I ask what fold change (FC) has been recorded for C=CCOc1cc(CN2C(=O)C(c3ccc(OC)c(OC)c3)=C(c3cc(OC)c(OC)c(OC)c3)C2=O)cc(OCC=C)c1OCC=C ?
result: 6.8

query: May I ask what fold change (FC) has been recorded for COc1ccc(C2=C(c3cc(OC)c(OC)c(OC)c3)C(=O)N(CC(=O)c3ccc(OCc4ccccc4)c(OC)c3)C2=O)cc1OC ?
result: 42.7

query: May I ask what fold change (FC) has been recorded for COc1cc(C(=O)CN2C(=O)C(c3cc(OC)c(OC)c(OC)c3)=C(c3cc(OC)c(OC)c(OC)c3)C2=O)cc(OC)c1OC ?
result: 1.8

---

target: ATP-dependent translocase ABCB1 (Homo sapiens); experiment: Modulation of p-gp (unknown origin) transfected in human MDA435/LCC6MDR cells assessed as potentiation of paclitaxel-induced cytotoxicity at 1 uM after 5 days by MTS assay relative to untreated control; assay type: cell-based; conditions: 120 h
Answer 0.0 if fold change (FC) is under 7, and 1.0 if it is 7 or more.

COc1ccc(CCN2C(=O)C(c3ccc(OC)c(OC)c3)=C(c3cc(OC)c(OC)c(OC)c3)C2=O)cc1; 1.0
COc1ccc(C2=C(c3ccc(OC)c(OC)c3)C(=O)N(CC(=O)c3cc(OC)c(OC)c(OC)c3)C2=O)cc1OC; 1.0
COc1ccc(C(=O)CN2C(=O)C(c3cc(OC)c(OC)c(OC)c3)=C(c3cc(OC)c(OC)c(OC)c3)C2=O)cc1; 0.0
COc1ccc(C2=C(c3ccc(OC)c(OC)c3)C(=O)N(CC(=O)c3ccc(OCc4ccccc4)cc3)C2=O)cc1OC; 1.0
COc1ccc(CCN2C(=O)C(c3ccc(OC)c(OC)c3)=C(c3cc(OC)c(OC)c(OC)c3)C2=O)cc1OC; 0.0
COc1ccc(C2=C(c3ccc(OC)c(OC)c3)C(=O)N(Cc3cc(OC(C)C)c(OC(C)C)c(OC(C)C)c3)C2=O)cc1OC; 1.0

query: Say whether COc1ccc(C2=C(c3cc(OC)c(OC)c(OC)c3)C(=O)N(Cc3cc(OC)c(OC)c(OC)c3)C2=O)cc1OC shows fold change (FC) of 7 or more.
result: 1.0

query: Say whether COc1ccc(C2=C(c3ccc(OC)c(OC)c3)C(=O)N(CCn3cnc4c(=O)n(C)c(=O)n(C)c43)C2=O)cc1OC shows fold change (FC) of 7 or more.
result: 0.0

query: Say whether COc1ccc(C2=C(c3cc(OC)c(OC)c(OC)c3)C(=O)N(c3cc(OC)c(OC)c(OC)c3)C2=O)cc1OC shows fold change (FC) of 7 or more.
result: 0.0

query: Say whether COc1ccc(CN2C(=O)C(c3ccc(OC)c(OC)c3)=C(c3cc(OC)c(OC)c(OC)c3)C2=O)cc1 shows fold change (FC) of 7 or more.
result: 1.0

query: Say whether COc1ccc(C2=C(c3ccc(OC)c(OC)c3)C(=O)N(CC(=O)c3ccc(OCc4ccccc4)c(OC)c3)C2=O)cc1OC shows fold change (FC) of 7 or more.
result: 1.0

query: Say whether COc1ccc(C2=C(c3ccc(OC)c(OC)c3)C(=O)N(CC(=O)O)C2=O)cc1OC shows fold change (FC) of 7 or more.
result: 0.0
